- procedure-summary: folding stability dG unfold from chymotrypsin proteolysis; higher = more stable
The following sequences are listed with their measured folding stability dG unfold values.
parameter: folding stability dG unfold (kcal/mol)

* SAGGSAMTVTVELEFEPVTVTDADGKEREVPVRVKVTAKVELVRDPETGELVERVEVTSIEIEVEPSAGGSA [r15_884_TrROS_Hall] | 1.92
* SAGGSAGGSGPALANIPPDAKVTVTPLPDDSYLVDIYYPNGPVEYLDVPVGDKWVKFEVEPEKSAGGSAGGS [r20_50_TrMRF] | -0.749
* SAGGSAGGSAGGDLNDAEIIDIYRDPDSDYYYAVFRGPDGGTYLVRFDPNSDRVEVIPLSAGGSAGGSAGGS [r10_674_TrMRF] | 3.39
* SAPMTPAERARPRIKKLVNLLAEDGNFKVDIERDPGDPGVVVTIKLDPNSREKFAERLGIPRDELYDLISAG [r14_688_TrROS] | -0.0457
* SAGGDEDDWRPIEIPLYIRNPENGHLFQITPMKIWVPDNLTIEMEMEMFDPDDGKVEKHKMTFTIPAKSAGG [r13_206_TrROS] | 2.09
* STIMIMFRSPEDLEKFLNEAKEMIRNGKNVPITIMAHGPNGRYWMFTIDIKMDPDGNPKIEIEWEPVPPDSA [r9_1023_TrROS] | 4.24
* SAMIEIEIEVEEREDGRLIVRVRIRNKETGEEIELELEMSREEVEKLLEELKKLFPNLEIVEVEIRELPSAG [r14_969_TrROS_Hall] | 3.29

====

- procedure-summary: folding stability dG unfold (combined trypsin and chymotrypsin); higher = more stable
parameter: folding stability dG unfold (kcal/mol)

* SAGGSAGGSAGGMTLEELKKAIENAKPGETIEIEINGETYRITIIEKDGKLIIKIEKLPPSAGGSAGGSAGG [r7_448_TrROS_Hall] | 4.19
* SAGGSAGGSTADALKDLPPGAKIEVEPHPIPNEDGWVYRQHYIKIEDPNKTVELPVIIPIPLPSAGGSAGGS [r12_892_TrROS] | -0.0244
* SAGGSSIEEIKEALKKGYNIKITPTTGTSTLVPVEELIKDPNITPETSLSDLGIKEITLIPPKNGKLVSAGG [r13_587_JUSTAS] | -0.257
* SAGGSAGGSAKPNKKFKFELVEVKEIEIYDKETNEKVYKISVAKVRLEDGSLLTFISIEEKSAGGSAGGSAG [r3_166_TrROS_Hall] | 3.19
* SAGGDFKPPVPTTQVLTFTIETSPEDPEKAKEIAEKLKKELLEKGAVKIEVTLDPEPGTVTVTVTLVKLSAG [r5_512_JUSTAS] | 2.51
* SAGGDVTISIMIFVWPGWTEEQYKEMAKEVAKTIARQLAQKNPDLNENIDIEDIEVTIIPMEGDPDYFSAGG [r13_128_TrROS] | 1.68
* SAGGAFEMSNEYWFPDGFRVKLKVEVYPNGMFMLDLEIEPIPPPPPIKIEKDPDGEYKYDPNGQPQKDSAGG [r13_151_TrROS] | 2.91

====

- procedure-summary: folding stability dG unfold (combined trypsin and chymotrypsin); higher = more stable
parameter: folding stability dG unfold (kcal/mol)

- SAGGMERKTLTVNVPASVPASELLSLLEGYGDVLLVLGNGEVLHIKRDDAPGLEGLPLSDDDVLELYYSAGG [r13_399_TrMRF]: 0.802
- SAGPVVTLTVTVEIEVDGVRVEVTVTATLLPDGTVVITATVKVTLPNGETKTVTVTLTFPPGVDEVVLTSAG [r5_829_TrROS_Hall]: 3.06
- SAGGSDSLVTLERVEVTELEEFEEDDRPFLVKRTYTIEKVVTTDPKTGKVTTETTVTSKEEVIPPELNSAGG [r13_810_JUSTAS]: 0.874
- SAGSMSFELTVDYEKLPDGTYRVRATITIYDPNNNNPLKTVDFEGEATSEEEAEARARARAEEVKEAASAGG [r19_255_JUSTAS]: 2.69

====

The following sequences are listed with their measured folding stability dG unfold values.
- procedure-summary: folding stability dG unfold from trypsin proteolysis; higher = more stable
parameter: folding stability dG unfold (kcal/mol)

• SAGGSGKVIEIPIELPEDKTITLRLDPETGKAVVEAEENVPLEKVIEAAKKIFEENGFELNGLDISSAGGSA [r2_497_TrMRF] = 0.788
• SAGGSAGGSAKMVIVNITLKNKDGKEFTISIEADPSVIKNIIKKLFNAKINKIEIYPLSEALSAGGSAGGSA [r18_107_TrMRF] = 2.49
• SAGGSAGGSAGGMIKTEDGYEVEIKIEVEEIPLPEGMSEEEKEKLKKIRIIRIEIKVTKKSAGGSAGGSAGG [r7_324_TrROS_Hall] = 1.67
• SAGLRIEPTPDYIKITMPGPNMANEIIKKIQEHFGDIEIDDIKPEPYPNGNNRVTIWIPLKNLPPELLKSAG [r5_857_TrROS] = 0.895

====

- procedure-summary: folding stability dG unfold from trypsin proteolysis; higher = more stable
parameter: folding stability dG unfold (kcal/mol)

- SAGGSAGGKKKVKYYKIKEVKIEKDEDGNYTITVKVDGKTFTITIPKEKIKPGMKLKDIVIKIKSAGGSAGG [r6_255_TrROS_Hall]: 1.91
- SADMVMFPMTGEFHFPGWRIKVEITLMFHFTPNGKFGPNFHPMIKIEIVPPPPPPKITEEEADKANENGSAG [r14_442_TrROS]: 3.03
- SAGGSAGGSAGKKPIKEVTITLPPGAKIVKIEIEKTEDGKYILKITVEVDGKLYEFTFELSAGGSAGGSAGG [r11_1013_TrROS_Hall]: 3.13
- SMKFTITLSNPVDGTTETIPLDVPLEELVKIIKEAHEKGGTVTITGLPEELAKEIAEKSGLDVSINPAPGSA [r9_1207_JUSTAS]: 3.13
- SAGMEIEITGPNLEELAEKVAKELKEKNWSPPVTITLKEPGGKTVLKVTVEFNPPNPNEIKVTKEKVESAGG [r19_85_JUSTAS]: 0.571
- SAGGSAGGSAMTAREIADELVKEGKEVKVTVRRPGEEKEITVTKEGEPLPPGAEIVKIEEVSAGGSAGGSAG [r3_421_TrROS_Hall]: -0.678
- SAGGMTITIPPSVPDADVERIVEEAEATFPQPVTLTRDPGRGRWTLTFDGPEDERREAIEALAARLASAGGS [r16_227_JUSTAS]: 0.0735
- SAGGSAMSITISDISSVKNLTITETTPDGTPVTVTVNATTGSGPPTLTFTATTPGTGATTTTTTAFSAGGSA [r15_1006_JUSTAS]: 0.693
- SAGGSMKTITDPGNLSEEEIKKILSKFPPNTTVTIEFPDATHTVTLNPDKIEISRDPSYPNFRITITISSAG [r5_373_JUSTAS]: 1.31
- SAGGSGKVIGFSFEVETPEEAEGLFKENRPDLDVKILEVKPEEGYVRLVAVDPDGKPHVFVVPIVGSAGGSA [r2_201_TrMRF]: 0.743
- SAGGMPREVAKEMIENDKDAKVTFTIYRFPDGPVPSVTVEVIEADVKDPDAFLESVPEGWLVLVEPASAGGS [r16_116_TrMRF]: 0.245
- SMKPGELVLVTETETRTFTVTPEDLPPGWKVKEVKVTVTRVALFRVTPDGRVELVEEVTSVEIEVTLEPESA [r9_747_TrROS_Hall]: 4.39
- SAGGSAGGKPKTYIILVIEDPENDKYLALLFDENGKLIGTAPFKSIDELLEKLPKNVKVIVLPASAGGSAGG [r6_492_TrMRF]: 3.6
- SAGGSAGGSASMTITLPGMSLEEAKAAAEAHPDHPVLLETPEGRLIEITPEGVVTVRPLPESAGGSAGGSAG [r3_269_JUSTAS]: -0.147
- SAGMPIRVRLLVERPALDPETGEPVVERREVVLTLHPEEIASGIPVEELAKELEKAFPGAKVTVLEVSSAGG [r19_110_TrMRF]: 3.88
- SAGFQIERKRDPDGKYEVEIKFPHPDGHPMRVKIPINPKEGKIKIDEIESTNPGHKQRMEELARWFLKASAG [r5_266_TrROS]: -0.4
- SAGGDNIDVERHPHPNNMYMFSITIPPDYPLKIRYPNGPKHEIPIPDPNATIHFMFPPDEPIEIEIYPSAGG [r13_82_TrROS]: 1.12
- SASSSSSSYNVTIDPATGTVTVTNPDGSTTTVPPGSTLTVTSTSSDGGSALGSSTPSTSTTTIPVPAGTSAG [r14_366_JUSTAS]: 1.05
- SAGGSAGGDEIADKVKDLLRKHGWPVKEVEVTVMPHPPGRVYVMIEITMEHPGKKWTMEIMVEVSAGGSAGG [r6_533_TrROS]: 3.15
- SAGGSAGGSAGMSALVLKVKIYYPKELFSPEEIEKIKSARIEVEPFLVEVKIDPETGELGSAGGSAGGSAGG [r17_310_TrMRF]: 1.84
- SAMKVTIEPLEDGSTVITLDDGTEITFSAPGSGAPILAKVTPLPNTGVVRVDIYHPEGGKLLAPLVVPLSAG [r14_975_TrMRF]: 0.657
- SYRPITIQMPSPEDLKKLEEAFEDDGFENVNIHRDPPGWHTITITQKGPPEQLQDRIREAFDENGFQIQPSA [r9_1003_TrROS]: 0.0855
- SAGGSETVRVEVEVELENGYRVRVEMEFDLETKEMTMRVEVEPVLELSPEELEKLKKLLEELGIEVSAGGSA [r2_304_TrROS_Hall]: 2.91
- SAGGSAGSFVNLGPEESEGVIVVTYYNEDGTTTTATYTYFPSPKTVSSNGPVTVPPNYKLSVSPLLSAGGSA [r15_198_JUSTAS]: 0.165
- SAGGSAGGSAGKAKIVKIEKVKNKNGETYYIIKLEGKKEIFVIKDKNGKKKKIPLKELKPSAGGSAGGSAGG [r17_286_TrROS_Hall]: 1.42
- SAMPIPNKNVVIRAKRSPDGTWDLTITVDNEKLGSKKAKTEEELKALVEEIAKEIAEKLGPGNVTVVEESAG [r14_791_JUSTAS]: 2.74
- SAGSMTVSESTENGVRTTTVTLPSRPLTVTVTFPDGKVTATTTDPAAPEAATTTPLGTPAVETLIAELSSAG [r14_716_JUSTAS]: 0.083

Provenance of the data: the supplement of paper PMC12764529
